# measurement_protocol: Plasma pharmacokinetics of CC-223 and metabolite M1 in patients with NET
# Format: in vivo, human
# experimental_conditions: human, plasma; geometric mean (%CV, n); CC-223 45 mg/day oral; Day 1; read-out: Vz/F
# Method: Blood for PK analysis was drawn on day 1 pre-dose and for up to 48 hours post-dose, and then on day 15 up to 8 hours post-dose. Urine on day 1 was collected within 30 minutes prior to dosing and at intervals up to 24 hours post-dose. Samples were assayed for CC-223 and the principal active metabolite (M1) using validated chiral liquid chromatography mass spectrometry. CC-223 PK parameters were calculated using dosing and sample collection times. […]
outcome_measure: Vd/F (L)
Provide the reading as a plain figure in L.

[Q] I have this compound here, CO[C@H]1CC[C@H](N2C(=O)CNc3ncc(-c4ccc(C(C)(C)O)nc4)nc32)CC1 [CC-223] , and I need its recorded Vd/F.
[A] 125

###

# measurement_protocol: Plasma pharmacokinetics of CC-223 and metabolite M1 in patients with NET
# Type: in vivo, human
# experimental_conditions: human, plasma, po, 30 mg/day, geometric mean (%CV, n); plasma; CC-223 30 mg/day oral; Day 1
outcome_measure: AUC
Returns: string containing the numeric result and its unit.

[Q] I have this compound here, CO[C@H]1CC[C@H](N2C(=O)CNc3ncc(-c4ccc(C(C)(C)O)nc4)nc32)CC1 , and I need its recorded AUC.
[A] 819 ng·h/mL

###

# measurement_protocol: Plasma pharmacokinetics of CC-223 and metabolite M1 in patients with NET
# Format: in vivo, human
# experimental_conditions: human, plasma, po, 45 mg/day, geometric mean (%CV, n); plasma; CC-223 45 mg/day oral; Day 1; n = 1
# Protocol: Blood for PK analysis was drawn on day 1 pre-dose and for up to 48 hours post-dose, and then on day 15 up to 8 hours post-dose. Urine on day 1 was collected within 30 minutes prior to dosing and at intervals up to 24 hours post-dose. Samples were assayed for CC-223 and the principal active metabolite (M1) using validated chiral liquid chromatography mass spectrometry. CC-223 PK parameters were calculated using dosing and sample collection times. […]
outcome_measure: AUC (ng·h/mL)
Provide the reading as a plain figure in ng·h/mL.

[Q] I have this molecule here, CO[C@H]1CC[C@H](N2C(=O)CNc3ncc(-c4ccc(C(C)(C)O)nc4)nc32)CC1 , and I need its recorded AUC.
[A] 1940

###

# measurement_protocol: Plasma pharmacokinetics of CC-223 and metabolite M1 in patients with NET
# Format: in vivo, human
# experimental_conditions: human, plasma, po, 45 mg/day, median (min, max, n); plasma; CC-223 45 mg/day oral; Day 1; read-out: Tmax
outcome_measure: Tmax (h)
Provide the reading as a plain figure in h.

[Q] I have this molecule here, CO[C@H]1CC[C@H](N2C(=O)CNc3ncc(-c4ccc(C(C)(C)O)nc4)nc32)CC1 , and I need its recorded Tmax.
[A] 1.52

###

# measurement_protocol: Plasma pharmacokinetics of CC-223 and metabolite M1 in patients with NET
# Assay type: in vivo, human
# experimental_conditions: human, plasma, po, 30 mg/day, geometric mean (%CV, n); plasma; CC-223 30 mg/day oral; Day 1
outcome_measure: AUC(0-t) (ng·h/mL)
Provide the reading as a plain figure in ng·h/mL.

[Q] I have this compound here, CO[C@H]1CC[C@H](N2C(=O)CNc3ncc(-c4ccc(C(C)(C)O)nc4)nc32)CC1 [CC-223] , and I need its recorded AUC(0-t).
[A] 840
